study-system: human MC1R (Homo sapiens)
Construct: expressed in transfected cells; host or cells: HEK-293 cells stably expressing hMC1R and the GScAMP22F cAMP sensor
Sequence (Q01726 whole entry): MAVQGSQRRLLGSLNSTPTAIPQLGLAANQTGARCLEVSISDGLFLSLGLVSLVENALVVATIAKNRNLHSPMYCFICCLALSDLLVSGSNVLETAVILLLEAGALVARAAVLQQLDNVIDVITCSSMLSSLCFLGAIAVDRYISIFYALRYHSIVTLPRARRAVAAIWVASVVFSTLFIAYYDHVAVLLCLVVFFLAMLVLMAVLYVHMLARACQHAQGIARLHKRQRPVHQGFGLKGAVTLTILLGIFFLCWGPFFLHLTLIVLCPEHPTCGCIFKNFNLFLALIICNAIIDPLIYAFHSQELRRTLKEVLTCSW
assay-info: split-luciferase cAMP sensor assay, agonist mode, hMC1R
Format: cell-based
condition-details: MC4R versus MC1R
Experimental: FIG. 4A-B. (A) Pharmacological properties of exemplary MC4R agonist peptides, including those with improved efficacy in the MC4R+/− mouse (CTX-1211, CTX-1227, and CTX-1228). Concentration-response agonist curves for peptides indicated at the human MC4R (red), human MC3R (blue), human MC5R (green), and human MC1R (black) were determined by a split-luciferase cAMP sensor dynamic assay in HEK-293 cells stably expressing the hMC1R, hMC3R, hMC4R, or hMC5R and the GScAMP22F cAMP sensor. […]
Positions of bridges follow the written chain, without caps; N, C: chain ends. Non-standard residues stand in square brackets, D forms with d. Residues, ends and D or L forms follow the SMILES beside them. d2Nal = N[C@H](Cc1ccc2ccccc2c1)C(=O)O; Cit = NC(=O)NCCC[C@H](N)C(=O)O; Nle = CCCC[C@H](N)C(=O)O; Orn = NCCC[C@H](N)C(=O)O; Aib = CC(C)(N)C(=O)O
Entries and their measured MC4R selectivity vs MC1R follow.
readout-label: MC4R selectivity vs MC1R

[
  {
    "molecule": "CC(=O)N[C@@H](CCCNC(=N)N)C(=O)N[C@H]1CSSC[C@@H](C(N)=O)NC(=O)[C@H](Cc2c[nH]c3ccccc23)NC(=O)[C@H](CCCNC(=N)N)NC(=O)[C@@H](Cc2ccccc2)NC(=O)[C@H](CCCNC(=N)N)NC(=O)C(C)(C)NC1=O [CTX-1292, Arg-cyclo(Cys-Aib-Arg-D-Phe-Arg-Trp-Cys)] (Ac-RC[Aib]R[dF]RWC-NH2; disulfide 2-8 (inferred))",
    "readout-label": "MC4R selectivity vs MC1R",
    "result": 2.46
  },
  {
    "molecule": "CC(=O)N[C@@H](CCCNC(=N)N)C(=O)N[C@H]1CSSC[C@@H](C(N)=O)NC(=O)[C@@H](Cc2c[nH]c3ccccc23)NC(=O)[C@H](CCCNC(=N)N)NC(=O)[C@@H](Cc2ccccc2)NC(=O)[C@H](CCCNC(N)=O)NC(=O)C(C)(C)NC1=O [CTX-1290] (Ac-RC[Aib][Cit][dF]R[dW]C-NH2; disulfide 2-8)",
    "readout-label": "MC4R selectivity vs MC1R",
    "result": 10
  },
  {
    "molecule": "CCCC[C@H](NC(=O)[C@H](CCCNC(=N)N)NC(C)=O)C(=O)N[C@H]1CSSC[C@@H](C(N)=O)NC(=O)[C@H](Cc2c[nH]c3ccccc23)NC(=O)[C@H](CCCNC(=N)N)NC(=O)[C@@H](Cc2ccccc2)NC(=O)[C@H](CCCN)NC1=O [CTX-1617, Arg-Nle-cyclo(Cys-Orn-D-Phe-Arg-Trp-Cys)] (Ac-R[Nle]C[Orn][dF]RWC-NH2; disulfide 3-8)",
    "readout-label": "MC4R selectivity vs MC1R",
    "result": 1.75
  },
  {
    "molecule": "CC(=O)N[C@@H](CCCNC(=N)N)C(=O)N[C@H]1CSSC[C@@H](C(N)=O)NC(=O)[C@@H](Cc2c[nH]c3ccccc23)NC(=O)[C@H](CCCNC(=N)N)NC(=O)[C@@H](Cc2ccccc2)NC(=O)[C@H](CCCNC(N)=O)NC(=O)[C@@H](C)NC1=O [CTX-1286] (Ac-RC[dA][Cit][dF]R[dW]C-NH2; disulfide 2-8)",
    "readout-label": "MC4R selectivity vs MC1R",
    "result": 3.4
  },
  {
    "molecule": "CC(=O)N[C@H]1CSSC[C@@H](C(N)=O)NC(=O)[C@H](Cc2c[nH]c3ccccc23)NC(=O)[C@H](CCCNC(=N)N)NC(=O)[C@@H](Cc2ccccc2)NC(=O)[C@H](CCCNC(=N)N)NC(=O)CNC1=O [CTX-1629, cyclo(Cys-Gly-Arg-D-Phe-Arg-Trp-Cys)] (Ac-CGR[dF]RWC-NH2; disulfide 1-7)",
    "readout-label": "MC4R selectivity vs MC1R",
    "result": 15
  },
  {
    "molecule": "CC(=O)N[C@@H](CCCNC(=N)N)C(=O)N[C@H]1CSSC[C@@H](C(N)=O)NC(=O)[C@@H](Cc2ccc3ccccc3c2)NC(=O)[C@H](CCCNC(=N)N)NC(=O)[C@@H](Cc2ccccc2)NC(=O)[C@H](CCCNC(=N)N)NC(=O)[C@@H](C)NC1=O [CTX-1264] (Ac-RC[dA]R[dF]R[d2Nal]C-NH2; disulfide 2-8 (inferred))",
    "readout-label": "MC4R selectivity vs MC1R",
    "result": 0.14
  }
]
